- measured on: recombinant human C-proteinase (Homo sapiens)
- assay notes: C-proteinase IC50 assay with fluorogenic peptide
- Format: biochemical
- condition label: recombinant human C-proteinase, 50 μM fluorogenic peptide, 4 hours at 37° C.; read-out: IC50 (μM) Of Various C-Proteinase Inhibitors
measured attribute: IC50 (µM)

O=C(CCN(Cc1ccc2c(c1)OCO2)S(=O)(=O)c1ccc(S(=O)(=O)c2ccccc2)s1)NO: 0.88
O=C(CCN(CCc1cccs1)S(=O)(=O)Cc1ccccc1)NO: 3.5

P = O=C(CCN(CCc1ccccc1)S(=O)(=O)c1ccc([N+](=O)[O-])cc1)NO
Q = O=C(CCN(Cc1ccc2c(c1)OCO2)S(=O)(=O)c1ccc(Br)s1)NO
-- ask Return label of the item with the larger IC50. Candidates: P , Q . Indicate your choice by writing its label.
-- reply P

====

- measured on: recombinant human C-proteinase (Homo sapiens)
- assay notes: C-proteinase IC50 assay with fluorogenic peptide
- Type: biochemical
- condition label: IC50 of Cpase
measured attribute: IC50 (nM)
Numeric answer only, unit nM assumed.

Value of measured IC50 for the entry COc1ccc(N(CCC(=O)NO)S(=O)(=O)c2ccc(OC)cc2)cc1 [compound 208] : 1680

====

- measured on: recombinant human C-proteinase (Homo sapiens, UniProt P13497)
- assay notes: C-proteinase IC50 assay with fluorogenic peptide
- Format: biochemical
- condition label: recombinant human C-proteinase, 50 μM fluorogenic peptide, 4 hours at 37° C.; read-out: IC50 (μM) Of Various C-Proteinase Inhibitors
measured attribute: IC50 (µM)

O=C(CCN(Cc1ccc2c(c1)OCO2)S(=O)(=O)c1cccc2nsnc12)NO: 1.51

a = N/C(=N\O)c1cccc(S(=O)(=O)N(CCC(=O)NO)Cc2ccc3c(c2)OCO3)c1
b = CCCCOc1ccc(S(=O)(=O)N(CCC(=O)NO)Cc2ccc3c(c2)OCO3)cc1
-- ask Looking at recorded values for IC50, does a or b come in lower? Answer by stating the label of the chosen item.
-- reply a
(a: 0.25 µM, b: 1.7 µM)

====

- measured on: recombinant human C-proteinase (Homo sapiens, UniProt P13497)
- Sequence (P13497 121-986): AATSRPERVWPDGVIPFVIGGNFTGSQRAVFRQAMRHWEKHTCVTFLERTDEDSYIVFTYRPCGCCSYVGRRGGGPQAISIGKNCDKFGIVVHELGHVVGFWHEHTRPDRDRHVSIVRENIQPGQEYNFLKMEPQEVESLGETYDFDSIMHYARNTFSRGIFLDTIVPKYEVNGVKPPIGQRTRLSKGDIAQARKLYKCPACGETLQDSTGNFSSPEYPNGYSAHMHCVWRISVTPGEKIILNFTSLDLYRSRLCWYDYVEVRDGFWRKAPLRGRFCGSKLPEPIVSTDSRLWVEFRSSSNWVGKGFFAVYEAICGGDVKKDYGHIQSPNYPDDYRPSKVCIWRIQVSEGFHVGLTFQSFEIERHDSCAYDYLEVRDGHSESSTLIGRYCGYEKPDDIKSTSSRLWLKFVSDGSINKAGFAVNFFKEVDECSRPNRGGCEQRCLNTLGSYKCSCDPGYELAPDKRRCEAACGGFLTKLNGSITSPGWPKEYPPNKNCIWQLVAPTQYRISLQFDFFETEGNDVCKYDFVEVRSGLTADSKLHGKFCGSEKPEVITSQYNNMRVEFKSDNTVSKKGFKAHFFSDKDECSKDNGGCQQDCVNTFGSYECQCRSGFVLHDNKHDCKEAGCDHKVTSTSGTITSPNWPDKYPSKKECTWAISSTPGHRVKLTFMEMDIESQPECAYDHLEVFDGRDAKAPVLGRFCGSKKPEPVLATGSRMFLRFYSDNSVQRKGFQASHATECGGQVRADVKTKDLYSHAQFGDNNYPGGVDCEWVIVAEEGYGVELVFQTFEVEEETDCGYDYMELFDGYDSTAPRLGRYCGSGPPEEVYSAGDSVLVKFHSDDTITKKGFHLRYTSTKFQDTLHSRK
- assay notes: C-proteinase IC50 assay with fluorogenic peptide
- Format: biochemical
- condition label: IC50 (μM) Of Various C-Proteinase Inhibitors
measured attribute: IC50 (µM)

COc1ccc(S(=O)(=O)N(CCC(=O)NO)CCN2CCOCC2)cc1: 80.5

P = COc1ccc(N(CCC(=O)NO)S(=O)(=O)c2ccc(OC)cc2)cc1
Q = COc1ccc(CCN(CCC(=O)NO)S(=O)(=O)c2cccc(/C(N)=N/O)c2)cc1
-- ask P or Q : whose IC50 is greater? Your choice should be expressed through its label.
-- reply P
(P: 1.68 µM, Q: 0.4 µM)

a = COc1ccc(S(=O)(=O)N(CCC(=O)NO)c2ccccc2)cc1
b = COc1ccc(S(=O)(=O)N(CCc2ccccc2)CC(=O)NO)cc1
-- ask Field: entry with larger IC50 (options a / b ). Answer format: the label of the selected item.
-- reply b
(b: 15.3 µM, a: 2 µM)

These measurements were taken from patent US6506936B1.
